Each record here notes measured logD.
assay notes: physchem
cond: buffer, pH 7.4
quantity: logD

{"compound": "Cc1ccc(-c2ncccc2OCc2ccccn2)cc1", "result": 4.9}
{"compound": "CC(=O)c1ccc(OCc2ccccn2)c(-c2ccc(CN)cc2)c1", "result": 1.9}
{"compound": "CC(=O)c1ccc(OCc2ccccn2)c(-c2cccc(C)c2)c1", "result": 6}
{"compound": "COc1cccc(OCc2cc(C)ccn2)c1-c1ccc2c(c1)CCNCC2", "result": 3.1}
{"compound": "COc1ccc(-c2nc(C)ccc2OCc2ccc(C)cn2)cc1", "result": 5.5}
{"compound": "CC(=O)c1ccc(OCc2ccccn2)c(-c2ccc(CCN)cc2)c1", "result": 2.1}
{"compound": "COc1ccc(-c2ccccc2OCc2ccccn2)cc1", "result": 6.2}
{"compound": "COc1ccc(-c2cc(C)ccc2OCc2ccccn2)cc1", "result": 6.8}
{"compound": "CC(=O)c1ccc(OCc2ccccn2)c(-c2ccc3c(c2)CNCCC3)c1", "result": 2.3}
{"compound": "COc1ccc(-c2cc(C(C)=O)ccc2OCc2ccccn2)cc1", "result": 5.3}
{"compound": "CC(=O)c1ccc(OCc2ccccn2)c(-c2ccc3c(c2)CCNC3)c1", "result": 2.1}
{"compound": "COc1ccc(-c2nc(C)ccc2OCc2cc(C)ccn2)cc1", "result": 5.4}

----------
assay notes: Apparent permeability of the compound after 3 hrs by PAMPA
Assay type: ADME

{"compound": "Cc1ccnc(COc2ccc(C)nc2-c2ccc3c(c2)CCNCC3)c1", "Papp at 3 h, ×10⁻⁶ cm/s": 43.5}
{"compound": "COc1ccc(-c2nc(C)ccc2OCc2cc(C)ccn2)cc1", "Papp at 3 h, ×10⁻⁶ cm/s": 33}
